Target Entity: PPARγ (Homo sapiens)
Construct: hPPARγ (281aa-554aa); expressed in transfected cells; host or cells: Cos-7
Procedure Details: Gal4-PPARγ(LBD) reporter gene agonistic activity assay in Cos-7 cells
Assay type: cell-based
Readout Name: EC50 (µM)

>>> observed_measurement("CCc1cc(Cn2ncn(-c3ccc(OC(F)(F)F)cc3)c2=O)cc(CC)c1OC(C)(C)C(=O)O")
2.19
>>> observed_measurement("Cc1cc(Cn2ncn(-c3ccccc3)c2=O)cc(C)c1OC(C)(C)C(=O)O")
8.65

###

Target Entity: PPARδ (Homo sapiens, UniProt Q03181)
Construct: expressed in transfected cells; host or cells: Cos-7
Sequence (Q03181 139-441 limits assumed): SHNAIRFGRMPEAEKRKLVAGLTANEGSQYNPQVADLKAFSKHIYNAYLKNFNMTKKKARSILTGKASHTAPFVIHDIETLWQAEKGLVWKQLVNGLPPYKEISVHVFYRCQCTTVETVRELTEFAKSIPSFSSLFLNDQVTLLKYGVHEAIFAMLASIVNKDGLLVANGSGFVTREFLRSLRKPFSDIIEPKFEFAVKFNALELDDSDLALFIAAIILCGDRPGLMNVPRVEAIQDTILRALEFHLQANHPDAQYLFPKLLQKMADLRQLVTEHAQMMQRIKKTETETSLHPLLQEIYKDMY
Procedure Details: Gal4-PPARδ(LBD) reporter gene agonistic activity assay in Cos-7 cells
Type: cell-based
Condition Parameters: Cos-7 cells, Gal4-PPARδ(LBD) reporter, 16 h; 100% = GW501516 10 nM
Readout Name: log10 of EC50 (log10 of the value in nM)

>>> observed_measurement("CC(C)(Oc1ccc(Cn2ncn(-c3ccc(C(F)(F)F)cc3)c2=O)cc1Cl)C(=O)O")
2.36
>>> observed_measurement("CC(C)(Oc1ccc(Cn2ncn(-c3ccc(OC(F)(F)F)cc3)c2=O)cc1F)C(=O)O")
2.96
>>> observed_measurement("CC(C)(Oc1ccc(Cn2ncn(-c3ccc(OC(F)(F)F)cc3)c2=O)cc1Cl)C(=O)O")
2.51
>>> observed_measurement("CC(C)(Oc1c(Cl)cc(Cn2ncn(-c3ccc(OC(F)(F)F)cc3)c2=O)cc1Cl)C(=O)O")
2.35
>>> observed_measurement("CC(C)(Oc1ccc(Cn2ncn(-c3ccc(C(F)(F)F)cc3)c2=O)cc1)C(=O)O")
3.18
>>> observed_measurement("CCc1ccc(-n2cnn(Cc3cc(C)c(OC(C)(C)C(=O)O)c(C)c3)c2=O)cc1")
1.83
>>> observed_measurement("Cc1cc(Cn2ncn(-c3ccc(Cl)cc3)c2=O)cc(C)c1OC(C)(C)C(=O)O")
1.67
>>> observed_measurement("CC(C)(Oc1ccc(Cn2ncn(-c3ccc(OC(F)(F)F)cc3)c2=O)cc1)C(=O)O")
3.23

###

Procedure Details: Pharmacokinetic evaluation in mice
Assay type: in vivo, C57BL/6J mice
Condition Parameters: male, C57BL/6J, mouse, plasma, 10 mg/kg, oral administration, 10 mpk, read-out: Time-to-peak Tmax
Readout Name: Tmax (min)

>>> observed_measurement("Cc1cc(Cn2ncn(-c3ccc(C(F)(F)F)cc3)c2=O)cc(C)c1OC(C)(C)C(=O)O")
15

###

Target Entity: PPARγ (Homo sapiens, UniProt P37231)
Construct: hPPARγ (281aa-554aa); expressed in transfected cells; host or cells: Cos-7
Sequence (P37231 232-505 limits assumed): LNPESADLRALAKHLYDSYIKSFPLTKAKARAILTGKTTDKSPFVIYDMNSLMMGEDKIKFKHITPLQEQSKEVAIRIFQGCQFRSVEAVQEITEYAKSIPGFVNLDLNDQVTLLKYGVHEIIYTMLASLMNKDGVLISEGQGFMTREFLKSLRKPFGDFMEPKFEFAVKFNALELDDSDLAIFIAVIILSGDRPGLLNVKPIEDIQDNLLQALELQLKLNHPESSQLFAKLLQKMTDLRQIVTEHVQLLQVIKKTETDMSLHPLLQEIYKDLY
Procedure Details: Gal4-PPARγ(LBD) reporter gene agonistic activity assay in Cos-7 cells
Format: cell-based
Condition Parameters: Cos-7 cells, Gal4-PPARγ(LBD) reporter, 16 h; 100% = Rosiglitazone 1 μM
Reported values of EC50 for individual entries
Readout Name: EC50 (µM)

>>> observed_measurement("Cc1cc(Cn2ncn(-c3ccc(Cl)cc3)c2=O)cc(C)c1OC(C)(C)C(=O)O")
1.83
>>> observed_measurement("Cc1cc(Cn2ncn(-c3ccc(OC(F)(F)F)cc3)c2=O)ccc1OC(C)(C)C(=O)O")
1.89
>>> observed_measurement("Cc1cc(SCn2ncn(-c3ccc(C(F)(F)F)cc3)c2=O)cc(C)c1OC(C)(C)C(=O)O")
2.85
>>> observed_measurement("Cc1cc(Cn2ncn(-c3ccc(C(F)(F)F)cc3)c2=O)cc(Cl)c1OC(C)(C)C(=O)O")
1.79
>>> observed_measurement("COc1ccc(-n2cnn(Cc3cc(C)c(OC(C)(C)C(=O)O)c(C)c3)c2=O)cc1")
2.02
>>> observed_measurement("CC(C)(Oc1c(Cl)cc(Cn2ncn(-c3ccc(C(F)(F)F)cc3)c2=O)cc1Cl)C(=O)O")
4.91
>>> observed_measurement("CC(C)(Oc1ccc(Cn2ncn(-c3ccc(OC(F)(F)F)cc3)c2=O)cc1OC(F)(F)F)C(=O)O")
4.68
>>> observed_measurement("Cc1cc(Cn2ncn(-c3ccc(C(C)C)cc3)c2=O)cc(C)c1OC(C)(C)C(=O)O")
1.76
>>> observed_measurement("Cc1cc(Cn2ncn(-c3ccc(C(F)(F)F)cc3)c2=O)cc(C(F)(F)F)c1OC(C)(C)C(=O)O")
0.812
>>> observed_measurement("Cc1cc(CCn2ncn(-c3ccc(C(F)(F)F)cc3)c2=O)cc(C)c1OC(C)(C)C(=O)O")
2.02
>>> observed_measurement("Cc1ccc(-n2cnn(Cc3cc(C)c(OC(C)(C)C(=O)O)c(C)c3)c2=O)cc1")
0.955
>>> observed_measurement("CC(C)(Oc1ccc(Cn2ncn(-c3ccc(C(F)(F)F)cc3)c2=O)cc1C(F)(F)F)C(=O)O")
1.8
>>> observed_measurement("CCc1ccc(-n2cnn(Cc3cc(C)c(OC(C)(C)C(=O)O)c(C)c3)c2=O)cc1")
1.18
>>> observed_measurement("CC(C)(Oc1ccc(Cn2ncn(-c3ccc(OC(F)(F)F)cc3)c2=O)cc1Cl)C(=O)O")
4.92
>>> observed_measurement("Cc1cc(Cn2ncn(-c3ccc(Br)cc3)c2=O)cc(C)c1OC(C)(C)C(=O)O")
1.78
>>> observed_measurement("CC(C)(Oc1ccc(Cn2ncn(-c3ccc(OC(F)(F)F)cc3)c2=O)cc1C(F)(F)F)C(=O)O")
1.66
>>> observed_measurement("CC(C)(Oc1ccc(Cn2ncn(-c3ccc(C(F)(F)F)cc3)c2=O)cc1Cl)C(=O)O")
2.78

Data provenance: patent US20250188044A1
